System: SNB-75 CNS
Assay: NCI-60 one-dose screen, 48 h
Conditions: 10 µM unless noted
About 83,000 compounds went through this panel and 20% of them were active in at least one assay; those are over-represented in the sample as a whole. The source made the active and inactive calls. The calls were made as follows: active = growth percent below 10; inactive = the rest.
Please answer using one outcome listed in 1 = active, 0 = inactive

Problem: Which outcome was assigned to N#Cc1nc(-c2ccccc2)oc1S(=O)(=O)N1CCOCC1 in this test?
Solution: 0

Problem: Assay result, entry CC(C)=CCC[C@](C)(O)[C@H]1CC[C@]2(C)[C@@H]1CC[C@@H]1[C@@]3(C)Cc4nccnc4C(C)(C)[C@@H]3CC[C@]12C — outcome?
Solution: 0

Problem: Hello, I am checking results. What call was entered for COc1cc(-n2cc(-c3cc(O)c(C/C=C(\C)CCC=C(C)C)c(O)c3)nn2)cc2c1O[C@]1(C)CC[C@@H](O)C(C)(C)[C@H]1C2 ?
Solution: 1

Problem: So what was the verdict on Cc1ccc(NC(=S)NNC(=S)NNc2ccccc2)cc1C in this test?
Solution: 0

Problem: Answer briefly: the call reported for COc1cc2c(c(OC)c1OC)-c1ccc(OC)c(=O)cc1[C@@H](NC(=O)CCl)CC2 in this assay.
Solution: 0

Problem: Short answer needed: outcome of this test for C#CCOc1cccc(Nc2ncnc3ccc(NC(=O)CCl)cc23)c1 ?
Solution: 0

Problem: GET /call?item= CS(=O)(=O)Nc1cc(-c2ccc3ncnc(Nc4ccc5c(cnn5Cc5ccccn5)c4)c3c2)cnc1Cl returns the recorded outcome of this test.
Solution: 0

* * *

Test system: NCI-H522 lung
Experiment: NCI-60 one-dose screen, 48 h
Conditions: 10 µM unless noted
Compounds without any hit were thinned out: in the full panel of roughly 83,000, 20% have a hit. The source made the active and inactive calls. Rule for the calls: active = growth percent below 10; inactive = the rest.
Tick one outcome: active, inactive

Problem: In this assay, the call recorded for CN1CCN(c2ccc(C(=O)Nc3cccc(C#Cc4cccc5[nH]nc(N)c45)c3)cc2C(F)(F)F)CC1 was what?
Solution: active

Problem: Record request — test call for COc1ccc2cc(C(=O)c3coc4ccc(O)cc34)ccc2c1
Solution: inactive

Problem: I would be grateful if you could indicate the recorded call for Cc1ccc(-c2cc(-c3ccc(Cl)cc3)nc(NC(=O)c3cccnc3)n2)cc1 .
Solution: inactive

Problem: Hello, I am checking results. What call was entered for N#Cc1cccc(NC(=O)c2oc3ccccc3c2-c2cnn(-c3ccccc3)c2)c1 ?
Solution: inactive

Problem: Hi, do you know how O=C(CCc1nnc(Cn2cnc3nc[nH]c3c2=O)o1)c1nc2ncccc2[nH]1 came out in this test?
Solution: inactive

Problem: Record lookup: outcome of this test for CCOC(=O)Cn1c(O)c(N=Nc2ccc(S(N)(=O)=O)cc2)c2cc(Br)ccc21 ?
Solution: inactive

Problem: Any idea what this test logged for C#Cc1cccc(Nc2ncnc3ccc(-c4cncc(NS(C)(=O)=O)c4)cc23)c1 ?
Solution: active

Problem: Which result was noted for this compound in the test: O=C(N/N=C/c1ccc(F)cc1)c1ccc(C(F)(F)F)nc1Nc1cccc(C(F)(F)F)c1
Solution: active

Problem: Could you please tell me the result logged for CCOC(=O)CNP(=O)(OC[C@@H](Cc1ccccc1)NC(=O)c1cc2ccccc2s1)Oc1ccccc1 (some centres undefined) in this assay?
Solution: inactive

* * *

System: OVCAR-8 ovarian
Experiment: NCI-60 one-dose screen, 48 h
Settings: 10 µM unless noted
About 83,000 compounds went through this panel and 20% of them were active in at least one assay; those are over-represented in the sample as a whole. The source made the active and inactive calls. Rule for the calls: active = growth percent below 10; inactive = the rest.
Allowed answers: active, inactive

Problem: Dear all, I need the recorded test outcome for CN1CCN(C(=O)c2ccc(NC(=O)Nc3ccc(-c4nc(N5CCOCC5)c5cccn5n4)cc3)cc2)CC1 , thank you.
Solution: active

Problem: Check the results log: what was the call for COc1cc2oc(-c3cccc(NC(=O)c4cccc(Br)c4)c3)cc(=O)c2c(OC)c1OC ?
Solution: inactive

Problem: Hi team, can someone confirm the assay call for Cc1ccc(C(C(N)=O)C(C(N)=O)c2ccccc2)cc1 (centres undefined) ?
Solution: inactive

Problem: For CCO/C=N/C1=C(C#N)C(c2ccc(OC)cc2)c2sc3c(F)cccc3c2O1 (centres undefined) , what call appears in the results of this test?
Solution: inactive

Problem: Please let me know the test result on file for COC1=CC(c2ccc[nH]2)=N/C1=C\c1[nH]c(C)c(C(=O)OCc2ccccc2)c1C .
Solution: active

Problem: How did this test come out for CCOC(=O)C#Cc1c(C(=O)OCC)nnn1[C@@H]1O[C@H](CO)[C@H]2OC3(CCCCC3)O[C@H]21 ?
Solution: inactive

Problem: State the result this test recorded for O=C(O)CCCN1C(=O)/C(=C/C(Cl)=C/c2ccccc2)SC1=S .
Solution: inactive

Problem: Which outcome was entered for the compound Nc1ncnc2c1N=C(c1ccc(Cl)cc1)CC(c1ccc3c(c1)OCO3)N2 (centres undefined) in this test?
Solution: inactive

Problem: Each compound tested received a call. Report the one for O=C(NCCCN1CCOCC1)c1cccc(N2C(=O)/C(=C/c3ccc(F)cc3)SC2=S)c1 .
Solution: inactive
